METHOD DESCRIPTION: small-molecule binders of probe aNOTCH2, primary screen, biochemical, small-molecule microarray, 635/667 nm fluorescence (AID 1121);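 also: score merges feature fluorescence read at 667 nm with its signal to noise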
ASSAY SETUP: higher = more signal
ENDPOINT NAME: composite z-score
One number for each entry.

Worked set:
| MOLECULE | composite z-score |
| --- | --- |
| CCCCC(CC)C(O)C1C=CC2C(=O)N(Cc3ccccc3)C(=O)C2N1n1cnnc1 (centres undefined) | -0.126 |
| CN(C)C(=O)[C@]1(Cc2ccccc2N=[N+]=[N-])N=C(c2ccc(OCCCO)cc2)O[C@@H]1c1ccccc1N=[N+]=[N-] | 0.134 |

Below are some molecules; for each one, tell me its composite z-score.
1. [N-]=[N+]=Nc1ccccc1[C@@H]1OC(c2ccc(OCCCO)cc2)=N[C@]1(CCS(=O)(=O)c1ccccc1)C(N)=O
2. NC(=O)NCC#Cc1ccc2c(c1)[C@]1(C(=O)N2)[C@H](C(N)=O)[C@H]2C(=O)O[C@H](c3ccccc3)[C@H](c3ccccc3)N2[C@@H]1c1ccc(O)cc1
3. CC(C)C(CO)N1C(=O)[C@@H]2C3C(=O)OCCC/C=C\[C@H]3OC23C=CCN(CCN2CCOCC2)C(=O)[C@@H]13 (some centres undefined)
4. O=C(NC1CC1)[C@@H]1c2ccccc2C(=O)N(Cc2ccccc2Cl)[C@H]1c1ccc(CO)cc1
5. C=CCNC(=O)[C@@H]1[C@H]2C(=O)O[C@H](c3ccccc3)[C@H](c3ccccc3)N2[C@H](c2ccccc2OCCO)[C@@]12C(=O)N(C(=O)OCCOC)c1ccccc12
6. CC(=O)NCCCC[C@@H]1NC(=O)[C@@H]2C[C@H](C(=O)NCCCCCNC(=O)CS)[C@H](c3cccc(OCCO)c3)N2C1=O
7. C#C[C@H](O[Si](C#Cc1ccc(Oc2ccccc2)cc1)(C(C)C)C(C)C)c1ccccc1
8. [N-]=[N+]=Nc1ccccc1[C@H]1OC(c2ccc(OCCCO)cc2)=N[C@@]1(CCS(=O)(=O)c1ccccc1)C(N)=O

1: 0.125; 2: 0.668; 3: -0.0928; 4: -0.0411; 5: -0.0878; 6: -0.159; 7: -0.0057; 8: 0.113

# batch size: 4; output composite z-score per entry
1. C=C(/C(=C/C[C@H](OC(C)=O)c1ccccc1OCCO)c1cnc2ccccc2c1)C(C)C
2. COc1ccc(CCNC(=O)[C@@]2(C)c3ccccc3C(=O)N(C(C)C)[C@H]2c2ccc(CO)cc2)cc1
3. COCCOC(=O)N1C(=O)[C@@]2(c3cc(C#Cc4ccc(OC)cc4)ccc31)[C@H](c1ccc(O)cc1)N1[C@H](c3ccccc3)[C@H](c3ccccc3)OC(=O)[C@H]1[C@@H]2C(=O)N1CCc2cc(OC)c(OC)cc2C1
4. COc1ccc([Si](C)(C)[C@H]2[C@H](CC(=O)N3Cc4ccccc4C[C@H]3CO)O[C@@]3(C(=O)N(Cc4cccc(N5CCC5=O)c4)c4ccccc43)[C@@H]2C)cc1

1: -0.102; 2: -0.151; 3: -0.0877; 4: -0.14

====

TARGET UNDER TEST: Calmodulin-1 (Homo sapiens)
METHOD DESCRIPTION: calcium-bound CALM1 binders on microarrays, profiling panel, artefact control for SMM control-protein annotation, biochemical, small-molecule microarray, Cy5-labelled CALM1, plus calcium (AID 1112);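 also: score merges spot fluorescence with signal to noise from triplicate slides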
ASSAY SETUP: Cy5-CALM1 binding fluorescence, higher = more signal
ENDPOINT NAME: composite z-score
One number for each entry.

Illustrative cases are given below, each with its answer.
| MOLECULE | OBSERVED VALUE |
| --- | --- |
| CN1C(=O)C2C=CC(C(O)C#Cc3ccccc3)N(N3CCCCC3)C2C1=O (configuration not stated) | 0.657 |
| COC(=O)[C@@]1(CCC(=O)OC(C)(C)C)N=C(c2ccc(OCCCO)cc2)O[C@H]1c1ccccc1N=[N+]=[N-] | 0.356 |
| COCCOC(=O)N1C(=O)[C@@]2(c3cc(C#Cc4ccc(OC)cc4)ccc31)[C@H](c1ccccc1OCCO)N1[C@H](c3ccccc3)[C@H](c3ccccc3)OC(=O)[C@H]1[C@@H]2C(=O)NC[C@H](O)c1ccccc1 | 0.427 |
| COCCOC(=O)N1C(=O)[C@@]2(c3cc(C#Cc4ccc(OC)cc4)ccc31)[C@H](c1ccc(O)cc1)N1[C@H](c3ccccc3)[C@H](c3ccccc3)OC(=O)[C@H]1[C@@H]2C(=O)N1CCc2cc(OC)c(OC)cc2C1 | 0.141 |
| COc1ccc(C(O)C2C=CC3C(=O)N(Cc4ccccc4)C(=O)C3N2n2cnnc2)cc1OCc1ccccc1 (configuration not stated) | -0.485 |

I have 2 molecules here; please give me composite z-score for each one.
1. C[C@@]1([C@@H](NC(=O)c2ccc(-c3ccccc3)cc2)c2ccc(Cl)cc2)C[C@H]1C1CCCCC1
2. NC(=O)NCC#Cc1ccc2c(c1)[C@]1(C(=O)N2)[C@H](c2ccccc2OCCO)N2[C@H](c3ccccc3)[C@H](c3ccccc3)OC(=O)[C@H]2[C@@H]1C(=O)Nc1nc2ccccc2s1

1.2
0.745

Please report composite z-score for every entry that follows.
1. CCOC(=O)C1=C[C@@H](C(C)(C)C)N(S(=O)(=O)c2ccc(C)cc2)[C@H]1c1ccc(F)cc1
2. C=C(C)[C@@H]1CC=C(C(O)C2C=CC3C(=O)N(c4ccccc4)C(=O)C3N2Nc2ccccc2)CC1 (some centres not stated)
3. O=C(NC1CC1)[C@@H]1c2ccccc2C(=O)N(Cc2ccccc2Cl)[C@H]1c1ccc(CO)cc1
4. NCCCCCCNC(=O)[C@@H]1C[C@@H]2C(=O)NCC(=O)N2[C@@H]1c1ccc(O)cc1

0.083
0.103
0.287
-0.0301

meta.source: PubChem BioAssay
